# Experimental Target: IRAK1 (Homo sapiens, UniProt P51617)
# Construct: His-TEV-IRAK1 (194-712); His (N); TEV cleavage site (N)
# Sequence (P51617 194-712): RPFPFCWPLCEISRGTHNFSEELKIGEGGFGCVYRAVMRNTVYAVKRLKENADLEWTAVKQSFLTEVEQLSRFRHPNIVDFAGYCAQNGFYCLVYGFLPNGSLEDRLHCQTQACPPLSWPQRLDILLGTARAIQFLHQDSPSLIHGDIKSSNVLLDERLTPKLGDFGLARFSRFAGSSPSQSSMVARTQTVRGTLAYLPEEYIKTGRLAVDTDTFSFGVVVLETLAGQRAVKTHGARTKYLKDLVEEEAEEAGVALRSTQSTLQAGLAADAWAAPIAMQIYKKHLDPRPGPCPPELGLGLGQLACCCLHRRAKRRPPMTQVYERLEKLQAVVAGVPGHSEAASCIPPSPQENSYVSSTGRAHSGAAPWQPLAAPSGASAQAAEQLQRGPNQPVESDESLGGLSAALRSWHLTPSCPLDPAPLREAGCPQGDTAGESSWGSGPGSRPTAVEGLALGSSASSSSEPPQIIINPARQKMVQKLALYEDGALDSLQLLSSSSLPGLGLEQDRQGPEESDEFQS
# Protocol Summary: IRAK1 enzymatic assay (ADP-Glo luminescence)
# Condition Parameters: purified human recombinant His-TEV-IRAK1 (194-712)
pIC50: −log10 of the molar value.
Would you kindly list pIC50 for each of these compounds?

Below, 5 compounds whose answers are already recorded.
Compound	Property Label	Result
O=C(/N=c1\[nH]c2cc(N3CCCOC3=O)ccc2n1CCCO)c1cccc(C(F)(F)F)c1 [Compound 33]	pIC50	≥ 7.00
CC(C)Oc1cc2c(cc1N1CCOCC1=O)[nH]/c(=N\C(=O)c1cccc(C(F)F)c1)n2CCCO [Compound 137]	pIC50	≥ 7.00
O=C(/N=c1\[nH]c2cc(N3CCOCC3=O)c(C3CC3)cc2n1CCCO)c1cccc(C(F)(F)F)c1 [Example 208]	pIC50	≥ 7.00
O=C(/N=c1\[nH]c2cc(N3CCN(C4CC4)CC3=O)ccc2n1CCCO)c1cccc(C(F)F)c1 [Compound 182]	pIC50	≥ 7.00
COc1cc2c(cc1N1CCOCC1=O)[nH]/c(=N\C(=O)c1cccc(C(F)(F)F)c1)n2[C@H](C)CCO [Compound 143]	pIC50	6.00 to 7.00

For each of the compounds below, state pIC50.
1. C#CCn1/c(=N/C(=O)c2cccc(C(F)(F)F)c2)[nH]c2cc(N3CCCOC3=O)ccc21 [Compound 175]
2. O=C(/N=c1\[nH]c2cc(N3CCOCC3=O)ccc2n1CCCO)c1ccc2nc[nH]c2c1 [Compound 102]

1. 6.00 to 7.00
2. < 6.00
